Listing of recorded protein stability index by entry.
B1: CDC25A (parent)
chain: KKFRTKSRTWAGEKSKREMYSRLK

Variants of: B1
Assay: protein stability index of a GFP-peptide fusion (GPS, HEK-293T) (PSI 1-6); higher = more stable;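 note: lentivirally expressed fusions sorted by FACS into six bins by GFP to DsRed ratio, PSI derived from sequencing read proportions per bin multiplied by bin number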
Settings: c terminus: a fixed tail appended
readout_type: protein stability index

INSERT INTO measurements (mutation_string, readout_type, quantitative_readout) VALUES
  ('S7Q', 'protein stability index', 2.39),
  ('K6H', 'protein stability index', 3.44),
  ('R17Q', 'protein stability index', 3.17),
  ('T5Q', 'protein stability index', 3.23),
  ('K14N', 'protein stability index', 4.05),
  ('W10Y', 'protein stability index', 3.14),
  ('K2D', 'protein stability index', 3.22),
  ('K6G', 'protein stability index', 3.23),
  ('K24L', 'protein stability index', 2.31),
  ('G12E', 'protein stability index', 2.82),
  ('R8K', 'protein stability index', 3.31),
  ('K1Q', 'protein stability index', 3.35),
  ('K1N', 'protein stability index', 2.7),
  ('W10A', 'protein stability index', 3.89),
  ('Y20M', 'protein stability index', 3.29),
  ('R4L', 'protein stability index', 2.47),
  ('K6N', 'protein stability index', 2.92),
  ('K6C', 'protein stability index', 2.71),
  ('L23I', 'protein stability index', 3.33),
  ('T5R', 'protein stability index', 3.06),
  ('S7K', 'protein stability index', 3.11),
  ('S7N', 'protein stability index', 3.17);
